Each entry below carries its reported Plant response rating, Crabgrass.
Tested on: crabgrass
protocol_text: Test B pre/postemergence crabgrass
Type: in vivo, Digitaria sanguinalis
particulars: Rate 250 g/ha, Postemergence; scale of 0 to 10 where 0 is no effect and 10 is complete control

{"structure_smiles": "CCN(C(=O)n1oc(=O)n(C(C)C)c1=O)C1CCCCC1", "system_name": "crabgrass", "Plant response rating, Crabgrass": 0}
{"structure_smiles": "C=CCCCn1c(=O)on(C(=O)N(c2ccccc2)C(C)C)c1=O", "system_name": "crabgrass", "Plant response rating, Crabgrass": 9}
{"structure_smiles": "CC(C)N(C(=O)n1oc(=O)n(Cc2nnsc2Cl)c1=O)c1ccc(F)cc1F", "system_name": "crabgrass", "Plant response rating, Crabgrass": 0}
{"structure_smiles": "Cc1ccccc1-n1c(=O)on(C(=O)N(c2ccc(Oc3ccccc3)cc2)C(C)C)c1=O", "system_name": "crabgrass", "Plant response rating, Crabgrass": 0}
{"structure_smiles": "CCC=CCn1c(=O)on(C(=O)N(c2ccc(F)cc2F)C(C)C)c1=O", "system_name": "crabgrass", "Plant response rating, Crabgrass": 6}
